These entries and their values trace back to patent US20060193821.

Biological target: IL-23 (human, p19/p40 heterodimer) (Homo sapiens, UniProt Q9NPF7;P29460 SEQ:20-189,SEQ:23-328)
Sequence (Q9NPF7 20-189, chain 1 of 2): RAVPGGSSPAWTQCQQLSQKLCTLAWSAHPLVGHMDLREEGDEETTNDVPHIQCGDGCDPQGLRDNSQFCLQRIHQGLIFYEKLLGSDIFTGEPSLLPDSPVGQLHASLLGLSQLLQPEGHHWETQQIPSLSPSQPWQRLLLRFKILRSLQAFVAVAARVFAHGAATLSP
Sequence (P29460 23-328, chain 2 of 2): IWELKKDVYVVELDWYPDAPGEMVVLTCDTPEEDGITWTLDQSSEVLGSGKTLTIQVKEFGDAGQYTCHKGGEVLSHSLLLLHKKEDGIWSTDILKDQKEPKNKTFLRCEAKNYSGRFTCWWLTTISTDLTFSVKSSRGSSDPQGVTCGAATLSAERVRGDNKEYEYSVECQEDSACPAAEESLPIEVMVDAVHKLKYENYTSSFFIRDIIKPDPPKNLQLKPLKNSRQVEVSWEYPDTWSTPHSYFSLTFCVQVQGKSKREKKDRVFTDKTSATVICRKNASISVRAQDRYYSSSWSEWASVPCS
Test: filter; DPBS Ca Mg, 0.1 mg/mL BSA
Conditions: tags: R&D Systems, carrier free

binder	Kd / nM
ACAGGCAAGUAAUUGGGGAGUGCGGGCGGGGUGU (mixed, 2'-OMe C,U and G16,G17,G24,G25,G30,G31; other A,G deoxy; PS 2-3; 3'-idT [PS 2-3; 2'-OMe at 2,6,10,13,14,16,17,21,23,24,25,27,30,31,32,34; other A,G deoxy; 3'-inverted dT at 35]) [ARC1620]	0.4
